Measured %Inh, listed per entry.
tested on: CSNK1A1; conditions: concentration: 1 μM, replicates: in singlicate; n = 1;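 also: KINOMEscan kinase panel screen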

compound-string	%Inh [%]
Cc1nn2c(=O)cc(N3CCOCC3)nc2n1Cc1cccc(Cl)c1Cl	0
COc1cc2nccc(Nc3cccc(Oc4ccccc4)c3)c2cc1OC.Cl	0
COc1cc2ncn(-c3cc(OCCCc4ccccc4)c(C(N)=O)s3)c2cc1OC	23
Cl.c1ccc(Cn2cnc3cc(Nc4ncnc5ccccc45)ccc32)cc1	0
COc1ccc(-c2coc3ccc(-c4nnc(SCc5cccc(C#N)c5)o4)cc23)cc1	10

====

tested on: CDK4-cyclinD1; conditions: concentration: 1 μM, replicates: in singlicate; n = 1

compound	unit	%Inh
Nc1nc(-c2ccccc2F)c(-c2ccnc3ccccc23)s1	%	11
Cc1nnc(-c2ccc(C)c(-c3ccc(C(=O)O)cc3)c2)o1	%	0
O=C(Nc1ccc2c(c1)OCO2)NC1CCN(c2ccnc(NCc3ccc(F)cc3)n2)CC1	%	0
COc1cc2nccc(Nc3ccc(OCc4ccc(NC(C)=O)cc4)cc3)c2cc1OC.Cl	%	37
O=C(Nc1n[nH]c2nc(-c3ccccc3)c(Br)cc12)C1CC1	%	0
O=c1cc(N2CCOCC2)nc2n(Cc3ccc(F)c(Cl)c3)ccn12	%	0
Nc1ncnc2c1ncn2-c1cccc2ccccc12	%	0
Cc1nnc(-c2ccc3ncn(-c4ccc(S(C)=O)cc4)c3c2)o1 (stereo not drawn)	%	0
COc1cc(Nc2nccc(N3CCC(NC(=O)C4COc5ccccc5O4)C3)n2)cc(OC)c1OC (stereo not drawn)	%	52
